From: patent US11952431B2

System: murine neutrophils (HDNs from 4T1-tumor bearing mice)
Assay: Titration of binding to purified HDNs, flow cytometry
Parameters: species or system mouse
Settings: purified HDNs, flow cytometry
pKd: −log10 of the molar value.

{"substance": "(LQIQSWSSSP (SEQ ID NO: 9) Doa-Doa-C)4-(Mpa)-4-Lys2-Lys-beta-Ala-Lys(Biotin)-beta-Ala-OH [LQI tetramer]", "pKd": 5.48}
